Please provide measured pIC50 for the entries that follow.
- assayed-system: UniProt P23526
- protocol-details: In vitro AHCY activity assay (ThioGlo1 fluorescence)
- condition-notes: recombinant expressed human or mouse AHCY enzyme; SAH substrate; ThioGlo1 readout
Give bare numbers, as −log10 of the molar value.

>>> endpoint_value("Nc1nccn2c([C@@H]3CC[C@@H](O)[C@H]3O)cnc12 [Example 2]")
6.16

Turning now to a further record.
Prompt: Quick one: pIC50 for Nc1nccn2c([C@@H]3C=C(CO)[C@@H](O)[C@H]3O)cnc12 [Example 1] ?
Completion: 8.40

----------
- Test system: AHCY in HEK293 and/or SH-SY5Y cells
- protocol-details: Cell-based assay of AHCY inhibition (secreted homocysteine)
- condition-notes: secreted homocysteine from Hek293 or SH-SY5Y cells, 72 hrs compound treatment
- Description: Cell-Based Assay of AHCY Inhibition The AHCY activity of the compounds of the invention can be measured by the following cell-based assay. Post treatment collection of the adherent Hek293 and/or SH-SY5Y cells is also made for a viability and proliferation measure. […] a. […] Detection: Fluorescence: Excitation 385 nm, Emission 515 nm • v. […] b. […] absorbance at 550 nm and 690 nM. • 6. Express readout as 550 nM-690 nM.
Please provide measured IC50 for the entries that follow.
Please answer using a numeric value trailed by its unit.

>>> endpoint_value("Nc1nccn2c([C@@H]3CC[C@@H](O)[C@H]3O)cnc12 [Example 2]")
"1.4 nM"

Prompt: Quick one: IC50 for Nc1nccn2c([C@@H]3C=C(CO)[C@@H](O)[C@H]3O)cnc12 [Example 1] ?
Completion: 4 nM
